- testDescription: Apparent permeability of the compound across bacterial inner membrane mimic pure POPG in PBS buffer assessed as membrane retention at pH 7.4 incubated for 5 hrs by PAMPA based UV-Vis spectrophotometric analysis
- Assay type: ADME, cell membranes
- assaySetup: pH 7.4, 5 h
measuredMetric: R% (%)
Could you give me the number in %? Just the number is fine.

Query :: Entry CCCCCCCCN(CCCCCCCCNC(=N)NCC1CC1)C(=O)N(CCCCCCNC(=N)NCC1CC1)CCCCCCNC(=N)NCC1CC1 : reported R% = ?
Result :: 63

Query :: Entry N=C(NCCCCCCCCNC(N)=O)NCC1CC1.O=C(O)C(F)(F)F : reported R% = ?
Result :: 16

Query :: Entry Cn1c(=O)c2c(ncn2C)n(C)c1=O : reported R% = ?
Result :: 4.5

Query :: Entry N=C(N)NCCCCCCCCN(CCCCCCCCNC(=N)NCC1CC1)C(=O)N(CCCCCCCCNC(=N)NCC1CC1)CCCCCCCCNC(=N)NCC1CC1.O=C(O)C(F)(F)F : reported R% = ?
Result :: 56

Query :: Entry N=C(N)NCCCCCCCCN(CCCCCCCCNC(=N)NCC1CC1)C(=O)N(CCCCCCCCNC(=N)N)CCCCCCCCNC(=N)NCC1CC1 : reported R% = ?
Result :: 46.1

Query :: Entry N=C(N)NCCCCCCCCN(CCCCCCCCN)C(=O)N(CCCCCCCCN)CCCCCCCCNC(=N)N.O=C(O)C(F)(F)F : reported R% = ?
Result :: 52.4
